Assay: in vivo
Design: species or system Sprague-Dawley (SD) rats
Conditions: Sprague-Dawley, rat, plasma, po, 60 mg·kg^−1
OBSERVED_PROPERTY: concentration at 1.5 h (ng/mL)
All answers are understood in ng/mL, so give the number only.

// field: concentration at 1.5 h; key: CC(C)=CCC[C@](C)(O[C@@H]1O[C@H](CO)[C@@H](O)[C@H](O)[C@H]1O)[C@H]1CC[C@]2(C)[C@@H]1[C@H](O)C[C@@H]1[C@@]3(C)CC[C@H](O)C(C)(C)[C@@H]3[C@@H](O[C@@H]3O[C@H](CO)[C@@H](O)[C@H](O)[C@H]3O[C@@H]3OC[C@@H](O)[C@H](O)[C@H]3O)C[C@]12C [NGR1, notoginsenoside R1] ; value = 0.28

###

Assay: in vivo
Set-up: species or system Sprague-Dawley (SD) rats
Conditions: Sprague-Dawley, plasma; 48 h after oral CNP, rat
The compounds listed here are annotated with their concentration at 48 h.
All answers are understood in ng/mL, so give the number only.

CC(C)=CCC[C@](C)(O[C@@H]1O[C@H](CO)[C@@H](O)[C@H](O)[C@H]1O)[C@H]1CC[C@]2(C)[C@@H]1[C@H](O)C[C@@H]1[C@@]3(C)CC[C@H](O[C@@H]4O[C@H](CO)[C@@H](O)[C@H](O)[C@H]4O[C@@H]4O[C@H](CO)[C@@H](O)[C@H](O)[C@H]4O)C(C)(C)[C@@H]3CC[C@]12C [GRd, ginsenoside Rd]; 3.96
CC(C)=CCC[C@](C)(O[C@@H]1O[C@H](CO)[C@@H](O)[C@H](O)[C@H]1O)[C@H]1CC[C@]2(C)[C@@H]1[C@H](O)C[C@@H]1[C@@]3(C)CC[C@H](O)C(C)(C)[C@@H]3[C@@H](O[C@@H]3O[C@H](CO)[C@@H](O)[C@H](O)[C@H]3O)C[C@]12C [GRg1, ginsenoside Rg1]; 0.13

Please examine the following record next.
// field: concentration at 48 h; key: CC(C)=CCC[C@](C)(O[C@@H]1O[C@H](CO[C@@H]2O[C@H](CO)[C@@H](O)[C@H](O)[C@H]2O)[C@@H](O)[C@H](O)[C@H]1O)[C@H]1CC[C@]2(C)[C@@H]1[C@H](O)C[C@@H]1[C@@]3(C)CC[C@H](O[C@@H]4O[C@H](CO)[C@@H](O)[C@H](O)[C@H]4O[C@@H]4O[C@H](CO)[C@@H](O)[C@H](O)[C@H]4O)C(C)(C)[C@@H]3CC[C@]12C [GRb1, ginsenoside Rb1] ; value = 19.4

###

Experiment: in vivo
Design: species or system Sprague-Dawley (SD) rats
Settings: Sprague-Dawley, rat, plasma, po, 60 mg·kg^−1
Experimental: At each time, 0.5 mL of blood was collected in the heparin sodium tubes. Plasma was separated by centrifugation at 4000 rpm for 10 min and stored below −80 °C until bioanalysis. Oasis PRiME HLB SPE cartridges (1 cc/30 mg, Waters, Milford, MA, USA) were used to process the plasma samples (Supplementary Materials). […]
The molecules listed here are annotated with their concentration at 0.5 h.
All answers are understood in ng/mL, so give the number only.

CC(C)=CCC[C@](C)(O[C@@H]1O[C@H](CO[C@@H]2O[C@H](CO)[C@@H](O)[C@H](O)[C@H]2O)[C@@H](O)[C@H](O)[C@H]1O)[C@H]1CC[C@]2(C)[C@@H]1[C@H](O)C[C@@H]1[C@@]3(C)CC[C@H](O[C@@H]4O[C@H](CO)[C@@H](O)[C@H](O)[C@H]4O[C@@H]4O[C@H](CO)[C@@H](O)[C@H](O)[C@H]4O)C(C)(C)[C@@H]3CC[C@]12C [GRb1, ginsenoside Rb1]; 38.1

Please examine the following record next.
// field: concentration at 0.5 h; key: CC(C)=CCC[C@](C)(O[C@@H]1O[C@H](CO)[C@@H](O)[C@H](O)[C@H]1O)[C@H]1CC[C@]2(C)[C@@H]1[C@H](O)C[C@@H]1[C@@]3(C)CC[C@H](O[C@@H]4O[C@H](CO)[C@@H](O)[C@H](O)[C@H]4O[C@@H]4O[C@H](CO)[C@@H](O)[C@H](O)[C@H]4O)C(C)(C)[C@@H]3CC[C@]12C [GRd, ginsenoside Rd] ; value = 11.5

###

The molecules listed here are annotated with their IC50 at 15 min.
Test system: CYP3A4
Experiment: in vitro
Details: Sprague-Dawley, rat, microsomes, pH 7.4
All answers are understood in µM, so give the number only.

Reference set (2 entries):
CC(C)=CCC[C@](C)(O[C@@H]1O[C@H](CO)[C@@H](O)[C@H](O)[C@H]1O)[C@H]1CC[C@]2(C)[C@@H]1[C@H](O)C[C@@H]1[C@@]3(C)CC[C@H](O[C@@H]4O[C@H](CO)[C@@H](O)[C@H](O)[C@H]4O[C@@H]4O[C@H](CO)[C@@H](O)[C@H](O)[C@H]4O)C(C)(C)[C@@H]3CC[C@]12C [GRd, ginsenoside Rd]; 61.4
O=c1c(O)c(-c2ccc(O)cc2)oc2cc(O)cc(O)c12; 117

Please examine the following record next.
// field: IC50 at 15 min; key: CC(C)=CCC[C@](C)(O[C@@H]1O[C@H](CO[C@@H]2O[C@H](CO)[C@@H](O)[C@H](O)[C@H]2O)[C@@H](O)[C@H](O)[C@H]1O)[C@H]1CC[C@]2(C)[C@@H]1[C@H](O)C[C@@H]1[C@@]3(C)CC[C@H](O[C@@H]4O[C@H](CO)[C@@H](O)[C@H](O)[C@H]4O[C@@H]4O[C@H](CO)[C@@H](O)[C@H](O)[C@H]4O)C(C)(C)[C@@H]3CC[C@]12C [GRb1, ginsenoside Rb1] ; value = 30

###

The compounds listed here are annotated with their pIC50.
Tested on: CYP2B6
Test: In vitro cocktail CYP450 activity assay in rat liver microsomes, CYP2B6 (bupropion probe)
Settings: read-out: IC50 CYP2B6; single components; RLM 0.2 mg/mL, 15 min, triplicate, mean ± SD
Hey, just a heads up that pIC50 is the negative log base 10 of the concentration in molar.

O=c1c(O[C@@H]2O[C@H](CO)[C@@H](O)[C@H](O)[C@H]2O)c(-c2ccc(O)cc2)oc2cc(O)cc(O)c12 [A7, kaempferol-3-O-glucoside]; 3.75

Please examine the following record next.
// field: pIC50; key: O=c1c(O)c(-c2ccc(O)cc2)oc2cc(O)c(O)c(O)c12 [A18, 6-hydroxykaempferol] ; value = 5.35

###

Experiment: in vivo
Design: species or system Sprague-Dawley (SD) rats
Details: Sprague-Dawley, rat, plasma, po, 60 mg·kg^−1
The compounds listed here are annotated with their concentration at 2 h.
All answers are understood in ng/mL, so give the number only.

// field: concentration at 2 h; key: CC(C)=CCC[C@](C)(O[C@@H]1O[C@H](CO)[C@@H](O)[C@H](O)[C@H]1O)[C@H]1CC[C@]2(C)[C@@H]1[C@H](O)C[C@@H]1[C@@]3(C)CC[C@H](O)C(C)(C)[C@@H]3[C@@H](O[C@@H]3O[C@H](CO)[C@@H](O)[C@H](O)[C@H]3O[C@@H]3O[C@@H](C)[C@H](O)[C@@H](O)[C@H]3O)C[C@]12C [GRe, ginsenoside Re] ; value = 0.21

// field: concentration at 2 h; key: CC(C)=CCC[C@](C)(O[C@@H]1O[C@H](CO[C@@H]2O[C@H](CO)[C@@H](O)[C@H](O)[C@H]2O)[C@@H](O)[C@H](O)[C@H]1O)[C@H]1CC[C@]2(C)[C@@H]1[C@H](O)C[C@@H]1[C@@]3(C)CC[C@H](O[C@@H]4O[C@H](CO)[C@@H](O)[C@H](O)[C@H]4O[C@@H]4O[C@H](CO)[C@@H](O)[C@H](O)[C@H]4O)C(C)(C)[C@@H]3CC[C@]12C [GRb1, ginsenoside Rb1] ; value = 61.9

// field: concentration at 2 h; key: CC(C)=CCC[C@](C)(O[C@@H]1O[C@H](CO)[C@@H](O)[C@H](O)[C@H]1O)[C@H]1CC[C@]2(C)[C@@H]1[C@H](O)C[C@@H]1[C@@]3(C)CC[C@H](O[C@@H]4O[C@H](CO)[C@@H](O)[C@H](O)[C@H]4O[C@@H]4O[C@H](CO)[C@@H](O)[C@H](O)[C@H]4O)C(C)(C)[C@@H]3CC[C@]12C [GRd, ginsenoside Rd] ; value = 19.2

// field: concentration at 2 h; key: CC(C)=CCC[C@](C)(O[C@@H]1O[C@H](CO)[C@@H](O)[C@H](O)[C@H]1O)[C@H]1CC[C@]2(C)[C@@H]1[C@H](O)C[C@@H]1[C@@]3(C)CC[C@H](O)C(C)(C)[C@@H]3[C@@H](O[C@@H]3O[C@H](CO)[C@@H](O)[C@H](O)[C@H]3O[C@@H]3OC[C@@H](O)[C@H](O)[C@H]3O)C[C@]12C [NGR1, notoginsenoside R1] ; value = 0.25
